The measured values listed here are drawn from paper PMC9271048.

Catalogue of IC50 values
tested on: ShHTLs (10 HTL proteins in S. hermonthica); test: YLG-based competition assay on HTL proteins of S. hermonthica; type: biochemical, Striga hermonthica; conditions: ShHTL9; YLG competition; Supplementary Fig. 27; read-out: IC50, replicate 2
Kindly answer with a numeric value in µM, unit omitted.

Some solved cases for reference:
INSERT INTO measurements (compound, observed_property, unit_string, recorded_value) VALUES
  ('CC1=C[C@H](O/C=C2/C(=O)O[C@@H]3c4ccccc4C[C@H]23)OC1=O (racemic) [rac-GR24, reference compound]', 'IC50', 'µM', 4.06),
  ('CC1=CC(OC(=O)N2CCN(C(=O)COc3ccc(Br)cc3C)CC2)CC1=O (stereo not shown) [4g]', 'IC50', 'µM', 38.7);

Now turn to the next compound.
Record summary for CC1=C[C@@H](OC(=O)N2CCN(C(=O)COc3ccc(Br)cc3C)CC2)OC1=O [(R)-4a] : reported IC50 = 43.9
